# targetUnderTest: human and murine B7-H3
# protocolSummary: KD (nM)
observable: Kd

Prompt: Can you share its Kd? I mean this substance: acWALQLCHSNleFYTCKSGK(AZO)G [OXIDIZED B1.1 | 296]
Response: 161 nM

###

# protocolSummary: Serum stability in 50% fetal bovine serum
# Assay type: in vitro ADME
# details: 37° C., read-out: peptide remaining intact
*1 amine or outer side, *2 acyl side, *3 side chain or, on linkers, in order; H or OH if unused. Where a SMILES comes first, the peptide text is derived from it. Bridges are numbered along the chain shown (N, C = ends). mXylylene = c1cc(C[*:1])cc(C[*:2])c1
observable: remaining at 24 h (%)
Express your answer in %, writing the number without its unit.

Prompt: Can you share its remaining at 24 h? I mean this molecule: CC[C@H](C)[C@@H]1NC(=O)[C@H](CC(=O)O)NC(=O)[C@H](CCCNC(=N)N)NC(=O)[C@H]([C@@H](C)CC)NC(=O)[C@H]([C@@H](C)O)NC(=O)[C@H](Cc2c[nH]c3ccccc23)NC(=O)[C@@H](NC(C)=O)CSCc2cccc(c2)CSC[C@@H](C(=O)NCC(=O)O)NC(=O)[C@H](CCCNC(=N)N)NC(=O)[C@H]([C@@H](C)O)NC(=O)CNC(=O)[C@H](CC(N)=O)NC1=O [JP5, N-terminal acetylated CWTIRDINGTRCG] (Ac-CWTIRDINGTRCG-OH; linker 1-12 via mXylylene; N-terminus and C-terminus assumed)
Response: 80
